- MEASUREMENT_TARGET: 3R Shaker Kv channel (M356R/A359R) (Drosophila melanogaster, UniProt P08510, A359R/DEL6-46/M356R)
- Sequence (P08510 other isoform, or with tags, fused parts or gaps DEL6-46/M356R/A359R): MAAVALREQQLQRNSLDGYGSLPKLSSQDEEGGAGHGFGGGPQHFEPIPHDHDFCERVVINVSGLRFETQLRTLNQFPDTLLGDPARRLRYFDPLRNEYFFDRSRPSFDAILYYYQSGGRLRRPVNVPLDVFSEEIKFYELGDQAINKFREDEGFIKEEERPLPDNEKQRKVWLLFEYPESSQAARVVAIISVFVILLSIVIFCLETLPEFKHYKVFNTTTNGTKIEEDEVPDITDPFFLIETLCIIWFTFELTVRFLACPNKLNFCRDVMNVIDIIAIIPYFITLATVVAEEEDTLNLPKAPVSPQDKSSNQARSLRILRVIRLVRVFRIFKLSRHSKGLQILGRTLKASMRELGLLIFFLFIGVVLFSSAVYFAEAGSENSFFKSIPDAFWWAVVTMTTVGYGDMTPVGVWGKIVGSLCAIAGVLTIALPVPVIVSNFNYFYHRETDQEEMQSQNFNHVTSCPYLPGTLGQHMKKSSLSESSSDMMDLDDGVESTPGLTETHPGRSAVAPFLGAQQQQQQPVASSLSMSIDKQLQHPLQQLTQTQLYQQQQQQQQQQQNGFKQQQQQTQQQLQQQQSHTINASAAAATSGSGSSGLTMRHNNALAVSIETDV
- PROTOCOL_DETAILS: in vitro
- Format: cell-based
- CONDITION_LABEL: pH 7.4, 100 μM, mean
- Protocol: Experiments were made with the Shaker H4 channel incapable of fast N-type inactivation due to a Δ6-46 deletion, referred to as the wt Shaker Kv channel. […] Currents were measured 1-6 days after cRNA injection using the two-electrode voltage clamp technique (GeneClamp 500B amplifier, Axon instruments). […] For the M-channel, holding potential was set to −100 mV, test-voltages were measured between −120 and +50 mV (10 mV increments for 2 s) and tail currents were measured at −30 mV. […]
G(V) shift values, listed per item
QUANTITY_MEASURED: G(V) shift

[
  {
    "MOLECULE": "CC(C)c1ccc2c(c1)CCC1[C@](C)(/C=C/C(=O)O)CCC[C@]21C (some centres unmarked)",
    "QUANTITY_MEASURED": "G(V) shift",
    "EXPERIMENTAL_RESULT": "−15.16 mV"
  },
  {
    "MOLECULE": "CC(C)C1=CC2=CC[C@H]3[C@](C)(C(=O)NCCCC(=O)O)CCC[C@]3(C)C2CC1 (some centres unmarked)",
    "QUANTITY_MEASURED": "G(V) shift",
    "EXPERIMENTAL_RESULT": "−7.10 mV"
  },
  {
    "MOLECULE": "CC(C)c1ccc2c(c1)CCC1[C@](C)(CCC(=O)O)CCC[C@]21C (some centres unmarked)",
    "QUANTITY_MEASURED": "G(V) shift",
    "EXPERIMENTAL_RESULT": "−10.43 mV"
  },
  {
    "MOLECULE": "CC(C)c1ccc2c(c1)CC[C@H]1[C@](C)(C(=O)NCCCC(=O)NCCCC(=O)O)CCC[C@]21C",
    "QUANTITY_MEASURED": "G(V) shift",
    "EXPERIMENTAL_RESULT": "−2.53 mV"
  },
  {
    "MOLECULE": "CC(C)c1ccc2c(c1)CC[C@H]1[C@](C)(C(=O)NCCCS(=O)(=O)O)CCC[C@]21C",
    "QUANTITY_MEASURED": "G(V) shift",
    "EXPERIMENTAL_RESULT": "−9.98 mV"
  },
  {
    "MOLECULE": "CC(C)C1=CC2=CC[C@@H]3[C@](C)(CCC[C@@]3(C)C(=O)O)[C@H]2CC1 [AA, abietic acid, reference compound]",
    "QUANTITY_MEASURED": "G(V) shift",
    "EXPERIMENTAL_RESULT": "−16.05 mV"
  },
  {
    "MOLECULE": "CC(C)c1ccc2c(c1)CC[C@H]1[C@](C)(C(=O)NCC(=O)O)CCC[C@]21C",
    "QUANTITY_MEASURED": "G(V) shift",
    "EXPERIMENTAL_RESULT": "−7.27 mV"
  },
  {
    "MOLECULE": "CC(C)c1ccc2c(c1)CC[C@H]1[C@](C)(C(=O)NCCC(=O)O)CCC[C@]21C",
    "QUANTITY_MEASURED": "G(V) shift",
    "EXPERIMENTAL_RESULT": "−6.2 mV"
  }
]
